The values you see were collected from patent CN108239149A.

molecular target: T1, 融合至人IgG1 Fc段的人PD-L1胞外结构域的重组蛋白PD-L1-Fc (GenScript, Z03371) (human, UniProt Q9NZQ7 19-238, biotin-labelled in the PD-1 competition ELISA (site not stated)); assay: indirect ELISA, PD-L1-Fc coated at 0.5 μg/ml, antibody titrated
T1 construct: extracellular domain; Bought reagent (GenScript Z03371); also called 重组PD-L1-Fc; 生物素标记的PD-L1-Fc; not shown: Human IgG1 Fc segment
T1 sequence (Q9NZQ7 19-238 limits assumed, one chain of several): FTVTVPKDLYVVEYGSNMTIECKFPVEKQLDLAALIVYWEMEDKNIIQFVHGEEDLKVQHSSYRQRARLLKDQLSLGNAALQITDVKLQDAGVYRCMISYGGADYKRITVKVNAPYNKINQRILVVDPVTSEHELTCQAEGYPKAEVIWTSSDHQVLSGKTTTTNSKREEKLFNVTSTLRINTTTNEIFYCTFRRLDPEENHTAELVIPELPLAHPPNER
Form field: EC50 (one value per entry).
Answer with a number only, understood to be in ng/mL.

# annotated cases, reported EC50 shown
BINDER	NUMERIC RESULT
18B7F4G8 (antibody, V domains shown, Mouse hybridoma clone; Detected with goat anti-mouse IgG) VH: DVQLQESGPDLVKPSQSLSLTCTVTGYSITSGYTWHWIRQFPGNKLEWMGYIHYSGSTKYNPSLKSRFSITRDTSKNQFFLQLNSMTAEDTATYYCARNSLFASWGHGTLVTVSA VL: DIVLTQSPASLAVSLGQRATISCRASESVDTYGDSFMHWFQQKPGQPPKLLIYRASNLESGIPARFSGSGSRTDFTLTINPVEADDVATYYCQQSNEAPYTFGGGTKLEIK	5.31
42G2D7C3 (antibody, V domains shown, Made recombinantly as variable region + constant region; also called 42G2D7D3) VH: DVQLLESGPGLVKPSQSLSLTCSVTGYSITSGYYWNWIRQFPGNNLEWMGSINYDGSNDYNPSLQDRISITRDTSKNQFFLKLNSVTTEDTATYYCARRLDYWGQGTTLIVSS VL: QIVLTQSPAIMSASPGEKVTISCSASSFINYMYWYQQKPGSSPKPWILRTSTLASGVPARFSGSGSGTSYSLTISSMEAEDAATYYCQQYHSYPLTFGAGTKLELK	4.58
51F3D2G4 (antibody, V domains shown, Mouse hybridoma clone; Made recombinantly as variable region + constant region in HEK293-6E) VH: QVQLQQSGAELARPGASVRLSCKASGYIFTGYGISWVKQRTGQGLEWIGEIFPRTANTYFNEKFKGKATLTADKSSSTAYMELRSLTSEDSAVYFCARDYDPYYALDYWGQGTSVTVSS VL: DIVMTQSHKFMSTSVGDRVTITCKASQDVSTAVDWYQQKPGQSPKLLIYSASYRYTGVPDRFTGSGSGTAFTFTISSEQAEDLAVYYCQQHYSVPFTFGGGTKLEIK	6.3

Now for a further binder.
Would you mind telling me what EC50 value was observed for 53C1F3D4 (antibody, V domains shown, Mouse hybridoma clone; Made recombinantly as variable region + constant region in HEK293-6E) VH: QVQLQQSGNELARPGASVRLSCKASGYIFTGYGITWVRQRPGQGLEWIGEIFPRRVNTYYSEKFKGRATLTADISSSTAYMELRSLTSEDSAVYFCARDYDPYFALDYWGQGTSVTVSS VL: DIVMTQSHKFMSTSVGDRVSITCKASQDVSTAVDWYQQKPGQSPKLLIYSASYRYTGVPDRFTGSGSGTAFTFTISGEQAEDLAVYYCQQHYSIPFTFGGGTKLEIK ?
4.67
